System: cocklebur
ASSAY_COMMENT: Test C pre-/postemergence test
Assay type: in vivo, Xanthium strumarium
CONDITION_SET: Preemergence, 250 g ai/ha
ASSAY_ENDPOINT: Plant response rating (0 to 100), Cocklebur

[
  {
    "COMPOUND": "Cc1cc[n+]([O-])c([S+]([O-])Cc2c(C(F)(F)F)nn(C)c2OC(F)F)c1 (centres unmarked)",
    "MEASURED_NUMBER": 60
  },
  {
    "COMPOUND": "Cn1nc(C(F)(F)F)c(CS(=O)(=O)c2ccc(Cl)c[n+]2[O-])c1OC(F)F",
    "MEASURED_NUMBER": 0
  },
  {
    "COMPOUND": "Cc1cc[n+]([O-])c(S(=O)(=O)Cc2c(C(F)(F)F)nn(C)c2OCC(F)(F)F)c1",
    "MEASURED_NUMBER": 50
  },
  {
    "COMPOUND": "Cc1cc[n+]([O-])c([S+]([O-])Cc2c(C(F)(F)F)nn(C)c2OCC(F)(F)F)c1 (racemic)",
    "MEASURED_NUMBER": 85
  },
  {
    "COMPOUND": "Cc1cc[n+]([O-])c(S(=O)(=O)C(C)c2c(C(F)(F)F)nn(C)c2OC(F)F)c1 (centres unmarked)",
    "MEASURED_NUMBER": 0
  },
  {
    "COMPOUND": "Cn1nc(C(F)(F)F)c(C[S+]([O-])c2cccc[n+]2[O-])c1Cl (centres unmarked)",
    "MEASURED_NUMBER": 5
  },
  {
    "COMPOUND": "Cn1nc(C(F)(F)F)c(C[S+]([O-])c2cccc[n+]2[O-])c1OC(F)F (centres unmarked)",
    "MEASURED_NUMBER": 5
  },
  {
    "COMPOUND": "Cn1nc(C(F)(F)F)c(C[S+]([O-])c2cccc[n+]2[O-])c1OCC(F)(F)F (racemic)",
    "MEASURED_NUMBER": 65
  }
]
